Where these numbers come from: ChEMBL document CHEMBL1137414

# Test system: SH-SY5Y
# Experiment notes: Survival of human SH-SY5Y cells after 48 hrs by MTS reduction assay
# Format: functional, cell-based
# Test parameters: sh-sy5y
I'd appreciate it if you could supply IC50 values for the items below.
Output spec: scalar in µM, unitless text.

Sure, the documented IC50 for Oc1[nH]c2c(Br)cccc2c1C1=Nc2ccccc2/C1=N\OCCN1CCCC1 is 2.3

response.value for CN(C)CCO/N=C1/C(c2c(O)n(C)c3c(Br)cccc23)=Nc2ccccc21 (field: IC50) = 5.5

The reported value for Oc1[nH]c2c(Br)cccc2c1C1=Nc2ccccc2/C1=N\OCCN1CCNCC1 in terms of IC50 is 6.2

Notebook: CN(C)CCO/N=C1/C(c2c(O)[nH]c3c(Br)cccc23)=Nc2ccccc21 , IC50 read as 2

Cn1c(O)c(C2=Nc3ccccc3/C2=N\OCCN2CCCC2)c2cccc(Br)c21 yielded IC50 of 5

----------
# System: SH-SY5Y
# Experiment notes: Survival of human SH-SY5Y cells at 25 uM by MTS reduction assay
# Assay type: functional, cell-based
# Test parameters: Homo sapiens, SH-SY5Y; read-out: Survival
Quantity measured: viability at 25 µM
The reply should consist of the numeric value with the unit placed after it.

Looking up CCN(CC)C(=O)O/N=C1/C(c2c(O)n(C)c3c(Br)cccc23)=Nc2ccccc21 , I see its viability at 25 µM listed as 105%

Entry CC(=O)O/N=C1/C(c2c(O)n(C)c3c(Cl)cccc23)=Nc2ccccc21 , viability at 25 µM reported as 96%

So for O=Nc1c(-c2c(O)[nH]c3c(F)cccc23)[nH]c2ccccc12 , the logged viability at 25 µM turned out to be 46%

// viability at 25 µM value for Cn1c(O)c(C2=Nc3ccccc3C2=O)c2cccc(Cl)c21 : 94%

Note to self: viability at 25 µM recorded for CO/N=C1/C(c2c(O)[nH]c3c(Cl)cccc23)=Nc2ccccc21 was 97%

----------
Consider the following molecules; for each one, report its IC50.
# Tested on: SH-SY5Y
# Experiment notes: Survival of human SH-SY5Y cells after 48 hrs by MTS reduction assay
# Format: functional, cell-based
# Test parameters: Homo sapiens, SH-SY5Y, 48 h
// return numeric value only (unit: µM, not printed)

Memo: O=Nc1c(-c2c(O)[nH]c3c(Br)cccc23)[nH]c2ccccc12 , reported IC50: 7.1

So, Cl.Cn1c(O)c(C2=Nc3ccccc3/C2=N\OCCN2CCCC2)c2cccc(Br)c21 ? Its IC50 was 4

Short answer for O=Nc1c(-c2c(O)[nH]c3c(Cl)cccc23)[nH]c2ccccc12 : IC50 was 12

// IC50 lookup, molecule = Cl.Oc1[nH]c2c(Br)cccc2c1C1=Nc2ccccc2/C1=N\OCCN1CCCC1 , result: 2

Data point: O=Nc1c(-c2c(O)[nH]c3ccccc23)[nH]c2ccccc12 ; IC50 = 12

Entry CN(C)CCO/N=C1/C(c2c(O)[nH]c3c(Br)cccc23)=Nc2ccccc21.Cl — recorded IC50 = 1

Sample O=C1Nc2ccc(Br)cc2/C1=C1/Nc2ccccc2/C1=N\O ; IC50 observed: 12

What the record says about CN(C)CCO/N=C1/C(c2c(O)n(C)c3c(Br)cccc23)=Nc2ccccc21.Cl : IC50 is 9

molecule Cl.Cl.Oc1[nH]c2c(Br)cccc2c1C1=Nc2ccccc2/C1=N\OCCN1CCNCC1 , IC50 observed: 6

----------
# Test system: MDA-MB-231
# Experiment notes: Survival of human MDA-MB-231 cells after 48 hrs by MTS reduction assay
# Type: functional, cell-based
# Test parameters: Homo sapiens, MDA-MB-231, 48 h
Quantity measured: IC50

Sure, the documented IC50 for Cl.Oc1[nH]c2c(Br)cccc2c1C1=Nc2ccccc2/C1=N\OCCN1CCCC1 is > 30 µM

Measured IC50 of Cl.Cl.Oc1[nH]c2c(Br)cccc2c1C1=Nc2ccccc2/C1=N\OCCN1CCNCC1 : 5.1 µM

Quick note, IC50 for CN(C)CCO/N=C1/C(c2c(O)n(C)c3c(Br)cccc23)=Nc2ccccc21.Cl landed at 17.8 µM

For reference, reported IC50 for O=Nc1c(-c2c(O)[nH]c3c(Br)cccc23)[nH]c2ccccc12 stands at 10.5 µM

The reported value for CN(C)CCO/N=C1/C(c2c(O)[nH]c3c(Br)cccc23)=Nc2ccccc21.Cl in terms of IC50 is 18.8 µM

----------
# Tested on: SH-SY5Y
# Experiment notes: Survival of human SH-SY5Y cells at 25 uM by MTS reduction assay
# Format: functional, cell-based
# Test parameters: Homo sapiens, SH-SY5Y; read-out: Survival
Threshold 90%. viability at 25 µM below it: Fulfilled. viability at 25 µM at it or above: Not fulfilled.

Regarding CC(=O)O/N=C1/C(c2c(O)[nH]c3c(I)cccc23)=Nc2ccccc21 , kindly confirm whether its viability at 25 µM is beneath 90%.
Fulfilled

Could you please tell me whether viability at 25 µM recorded for CO/N=C1\C(c2c(O)[nH]c3ccccc23)=Nc2ccccc21 is less than 90%?
Fulfilled

Hello, is viability at 25 µM of the following compound strictly smaller than 90%? Cn1c(O)c(C2=Nc3ccccc3/C2=N\OCCn2ccnc2)c2cccc(Br)c21
Fulfilled

Lab note: confirm whether the reported viability at 25 µM for this compound is below 90%, equality not counting. compound: O=C1Nc2cc(Br)ccc2/C1=C1/Nc2ccccc2/C1=N\O
Fulfilled

A record lists Cn1c(O)c(-c2[nH]c3ccccc3c2N=O)c2cccc(F)c21 . Is its viability at 25 µM below 90%?
Not fulfilled

Strictly below 90%: is that where viability at 25 µM of CC(=O)O/N=C1\C(c2c(O)[nH]c3ccccc23)=Nc2ccccc21 sits?
Fulfilled

Dear colleague, could you confirm whether viability at 25 µM of O=C1C(c2c(O)[nH]c3c(F)cccc23)=Nc2ccccc21 falls below 90%? Thanks.
Fulfilled

State whether 90% exceeds viability at 25 µM recorded for CO/N=C1/C(c2c(O)[nH]c3c(Br)cccc23)=Nc2ccccc21 .
Not fulfilled

Dear reviewer, please state whether CC(=O)O/N=C1/C(c2c(O)n(C)c3c(F)cccc23)=Nc2ccccc21 has viability at 25 µM strictly beneath 90%.
Not fulfilled

Is it true that viability at 25 µM reported for O=Nc1c(-c2c(O)[nH]c3c(Br)cccc23)[nH]c2ccccc12 is less than 90%?
Fulfilled

----------
# System: HEK293
# Experiment notes: Survival of human HEK293 cells after 48 hrs by MTS reduction assay
# Assay type: functional, cell-based
# Test parameters: Homo sapiens, HEK293, 48 h
Quantity measured: IC50 (µM)
Field format: number, assumed µM, no unit text.

The recorded IC50 with HEK293 for O=Nc1c(-c2c(O)[nH]c3c(Br)cccc23)[nH]c2ccccc12 was 12.3

The observed IC50 for CN(C)CCO/N=C1/C(c2c(O)n(C)c3c(Br)cccc23)=Nc2ccccc21.Cl when tested with HEK293 stands at 18.8

----------
# Test system: HT-29
# Experiment notes: Survival of human HT29 cells after 48 hrs by MTS reduction assay
# Format: functional, cell-based
# Test parameters: ht-29
Give measured IC50 for each item. Keep answers brief.

Lab note: measured IC50 of CN(C)CCO/N=C1/C(c2c(O)[nH]c3c(Br)cccc23)=Nc2ccccc21.Cl was 2.4 µM

Notebook: Cl.Cn1c(O)c(C2=Nc3ccccc3/C2=N\OCCN2CCCC2)c2cccc(Br)c21 , IC50 read as 5.4 µM

Entry Cn1c(O)c(C2=Nc3ccccc3/C2=N\OCCN2CCCC2)c2cccc(Br)c21 ; IC50 = 19.8 µM

Entry under test: CN(C)CCO/N=C1/C(c2c(O)[nH]c3c(Br)cccc23)=Nc2ccccc21 . Its IC50 was 21.8 µM

Note to self: IC50 recorded for Cl.Cl.Oc1[nH]c2c(Br)cccc2c1C1=Nc2ccccc2/C1=N\OCCN1CCNCC1 was 1.9 µM

Memo: Oc1[nH]c2c(Br)cccc2c1C1=Nc2ccccc2/C1=N\OCCN1CCNCC1 , reported IC50: 6.3 µM

----------
# Tested on: HT-29
# Experiment notes: Survival of human HT29 cells after 48 hrs by MTS reduction assay
# Assay type: functional, cell-based
# Test parameters: Homo sapiens, HT-29, 48 h
Quantity measured: IC50 (µM)
Value expressed in µM; do not type the unit.

compound O=Nc1c(-c2c(O)[nH]c3c(Br)cccc23)[nH]c2ccccc12 , IC50 observed: 21.2

----------
# Tested on: HCT-116
# Experiment notes: Survival of human HCT116 cells after 48 hrs by MTS reduction assay
# Format: functional, cell-based
# Test parameters: Homo sapiens, HCT-116, 48 h
Quantity measured: IC50 (µM)
Your answer should be a plain number; it is taken to be in µM.

// sample CN(C)CCO/N=C1/C(c2c(O)n(C)c3c(Br)cccc23)=Nc2ccccc21.Cl , its IC50 was 15.7

According to the records, this compound Cl.Cl.Oc1[nH]c2c(Br)cccc2c1C1=Nc2ccccc2/C1=N\OCCN1CCNCC1 displays IC50 of 5.1

The compound listed as O=Nc1c(-c2c(O)[nH]c3c(Br)cccc23)[nH]c2ccccc12 shows IC50 equal to 6.2

Form: compound = Cl.Oc1[nH]c2c(Br)cccc2c1C1=Nc2ccccc2/C1=N\OCCN1CCCC1 ; IC50 = 3.8
